System: PC-3 prostate
Experiment: NCI-60 one-dose screen, 48 h
Details: 10 µM unless noted
About 83,000 compounds went through this panel and 20% of them were active in at least one assay; those are over-represented in the sample as a whole. The source made the active and inactive calls. Rule for the calls: active = growth percent below 10; inactive = the rest.
Outcome codes: active, inactive

COMPOUND	CLASS_NAME
Cn1cc(-c2nc(N)nnc2-c2c[nH]c3ccc(F)cc23)c2cccnc21	inactive
Cc1sc(C(NC(=O)OCCn2c([N+](=O)[O-])cnc2C)C(F)(F)Cl)nc1-c1ccc(OC(F)(F)F)cc1 (stereo not drawn)	active
COc1ccc(NC(=O)[C@@H](N)Cc2ccccc2)cc1C(=O)Nc1cccc(C2CC(=O)c3c(cc(OC)c(OC)c3OC)O2)c1 (stereo partly drawn)	inactive
COc1cc2oc(-c3cccc(C(=O)Nc4ccc(Cl)cc4)c3)cc(=O)c2c(OCCNC(=O)[C@@H](N)CCC(=O)O)c1OC	inactive
COc1ccc2nc(Nc3cccc(NC(=O)c4ccc(CN5CCCN(C)CC5)c(C(F)(F)F)c4)c3)ccc2c1	active
COc1ccc(-c2cc(C(=O)NCc3ccccc3)nn2-c2ccc(S(C)(=O)=O)cc2)cc1OC	inactive
O=C1NC(=O)c2c1c1c3cc(Br)ccc3[nH]c1c1oc3ccc(F)cc3c21	active
CCOC(=O)COc1c(OC)c(OC)cc2oc(-c3cccc(C(=O)Nc4ccc(Cl)cc4)c3)cc(=O)c12	inactive
